tested on: VchCAST RNA-guided transposition machinery (E. coli BL21(DE3) host, lacZ target); experiment: relative integration efficiency (T-RL orientation) vs wild-type transposon end (log2 (normalized fold change)); transposon end mutated: right end (5 bp flank + 75 bp right end); higher = more efficient transposition
# reported relative integration efficiency (log2); entries follow
metric_name: relative integration efficiency (log2)

record_sequence=ACATTTGTTGATACAACCATAAAATGATAATTACACCCATATTAAGATAATTATCACACCCATAAATTGATATTGCCTCTGATCATAGTCAGACCAACATTGCTACGACCCGTATTCGCACCGACAC metric_name="relative integration efficiency (log2)" measured_value=-0.611
record_sequence=ACATTTGTTGATACAACCATAAGTTGATATTTTCAACCATAAAATGATAATTATCAGTGGGTATTTAACTATAACGCTCTGATCATAGTCAGACCAACATTGCTACGACCCGTATTCGCACCGACAC metric_name="relative integration efficiency (log2)" measured_value=-0.962
record_sequence=ACATTTGTTGATACAACCATAAAATGATAATTACACCCATAAATTGATAATTATCTGTGCCATAAATTGATATTGCCTCTGATCATAGTCAGACCAACATTGCTACGACCCGTATTCGCACCGACAC metric_name="relative integration efficiency (log2)" measured_value=-0.555
record_sequence=ACATTTGTTGATACAACCATAAAATGATAATTACACCCATAAATTGATAATTATCCACAAACGCCCGGTCGCGGTAAGAGGATCATAGTCAGACCAACATTGCTACGACCCGTATTCGCACCGACAC metric_name="relative integration efficiency (log2)" measured_value=-0.795
record_sequence=ACATTTGTACATACAACCATAAAATGATAATTACACCCATAAATTGATAATTATCACACCCATAAATTGATATTGCCTCTGATCATAGTCAGACCAACATTGCTACGACCCGTATTCGCACCGACAC metric_name="relative integration efficiency (log2)" measured_value=-0.312

---

system: VchCAST RNA-guided transposition machinery (E. coli BL21(DE3) host, lacZ target); test: relative integration efficiency (T-RL orientation) vs wild-type transposon end (log2 (normalized fold change)); transposon end mutated: right end (5 bp flank + 75 bp right end); higher = more efficient transposition
metric_name: relative integration efficiency (log2)

record_sequence=ACATTTGTTGATACAACCATAAAATGATAATTTGTGCCATAAATTGATAATTATCACACCCATAAATTGATATTGCCTCTGATCATAGTCAGACCAACATTGCTACGACCCGTATTCGCACCGACAC subject_of_test="VchCAST RNA-guided transposition machinery (E. coli BL21(DE3) host, lacZ target)" measured_value=-1.7
record_sequence=ACATTTGTTGATACAACCATAAAGTGATATTTACACCCATAAATTGATAATTATCACACCCATAAATTGATATTGCCTCTGATCATAGTCAGACCAACATTGCTACGACCCGTATTCGCACCGACAC subject_of_test="VchCAST RNA-guided transposition machinery (E. coli BL21(DE3) host, lacZ target)" measured_value=-0.207
record_sequence=ACATTTGTGTCGACAACCATAAAATGATAATTACACCCATAAATTGATAATTATCACACCCATAAATTGATATTGCCTCTGATCATAGTCAGACCAACATTGCTACGACCCGTATTCGCACCGACAC subject_of_test="VchCAST RNA-guided transposition machinery (E. coli BL21(DE3) host, lacZ target)" measured_value=-0.916
record_sequence=ACATTTGTTGATACACCCATAAATTGATAATTACAACCATAAGTTGATATTTTTCACAACCATAAAATGATAATTACTCTGATCATAGTCAGACCAACATTGCTACGACCCGTATTCGCACCGACAC subject_of_test="VchCAST RNA-guided transposition machinery (E. coli BL21(DE3) host, lacZ target)" measured_value=-0.644
record_sequence=ACATTTGTTGATACACCCATAAATTGATAATTACAACCATAAAATGATAATTATCAGTGGGTATTTAACTATAACGCTCTGATCATAGTCAGACCAACATTGCTACGACCCGTATTCGCACCGACAC subject_of_test="VchCAST RNA-guided transposition machinery (E. coli BL21(DE3) host, lacZ target)" measured_value=-0.217
record_sequence=ACATTTGTGGATACAACCATAAAACGATAATTACACCCATAAATTCATAATTATCACACCCAATTTAACTATAACGCTCTGATCATAGTCAGACCAACATTGCTACGACCCGTATTCGCACCGACAC subject_of_test="VchCAST RNA-guided transposition machinery (E. coli BL21(DE3) host, lacZ target)" measured_value=-2.15
record_sequence=ACATTTGTTGATACAACCATAAGTTGATATTTTCACCCATAAATTGATAATTATCACAACCATAAAATGATAATTACTCTGATCATAGTCAGACCAACATTGCTACGACCCGTATTCGCACCGACAC subject_of_test="VchCAST RNA-guided transposition machinery (E. coli BL21(DE3) host, lacZ target)" measured_value=-0.0424
record_sequence=ACATTTGTTGATACAACCATAAAATGATAATTAATAATTATTTATAATCAGCACCCATAAATTGATAATTATCAACAAACGCCCGGTCGCGGTACTCTGATCATAGTCAGACCAACATTGCTACGAC subject_of_test="VchCAST RNA-guided transposition machinery (E. coli BL21(DE3) host, lacZ target)" measured_value=-2.03
record_sequence=ACATTTGTTGATACAACCATACCCGTCGCCGGCACAAACGCCCGGTCGCCGGCGACACAAACGCCCGGTCGCGGTAAGAGGATCATAGTCAGACCAACATTGCTACGACCCGTATTCGCACCGACAC subject_of_test="VchCAST RNA-guided transposition machinery (E. coli BL21(DE3) host, lacZ target)" measured_value=-6.48
record_sequence=ACATTTGTCGATACAACCATAAAATGATAATTACACCCATAAATGGATAATTATCACCCCCAATTTAACTATAACGCTCTGATCATAGTCAGACCAACATTGCTACGACCCGTATTCGCACCGACAC subject_of_test="VchCAST RNA-guided transposition machinery (E. coli BL21(DE3) host, lacZ target)" measured_value=-1.38

---

system: VchCAST RNA-guided transposition machinery (E. coli BL21(DE3) host, lacZ target); assay: relative integration efficiency (T-LR orientation) vs wild-type transposon end (log2 (normalized fold change)); transposon end mutated: right end (5 bp flank + 75 bp right end); higher = more efficient transposition
Kind request: treat 0.1 as inclusive, so relative integration efficiency (log2) at 0.1 or higher is Satisfied, anything lower is Not satisfied.

record_sequence=ACATTTGTTGATACAACCATAAAATGATAATTACAGGGTTAAATTGATAATTATCACACCCATAAATTGATATTGCCTCTGATCATAGTCAGACCAACATTGCTACGACCCGTATTCGCACCGACAC discrete_label="Not satisfied"
record_sequence=ACATTAGTTGATACAACCATAAAATGATAATTACACCCATAAATTCATCATTATCACACCCAATTTAACTATAACGCTCTGATCATAGTCAGACCAACATTGCTACGACCCGTATTCGCACCGACAC discrete_label="Not satisfied"
record_sequence=ACATTTGTTGATACAACCATAAAATGATAATTACACCCATAAATTGATATTGCTCACAACCATAAAGTGATATTTACTCTGATCATAGTCAGACCAACATTGCTACGACCCGTATTCGCACCGACAC discrete_label=Satisfied
record_sequence=ACATTTGTTGATACACCCATAAATTGATATTGCCAACCATAAGTTGATATTTTTCACAACCATAAAGTGATATTTACTCTGATCATAGTCAGACCAACATTGCTACGACCCGTATTCGCACCGACAC discrete_label="Not satisfied"
record_sequence=ACATTTCTTGATACAACCATAAAATGATAATTACACCCATAAATGGATCATTATCACACCCAATTTAACTATAACGCTCTGATCATAGTCAGACCAACATTGCTACGACCCGTATTCGCACCGACAC discrete_label="Not satisfied"
record_sequence=ACATTGGTGGATACAACCATAAAATGATAATTACACCCATAAATTCATCATTATCACACCCAATTTAACTATAACGCTCTGATCATAGTCAGACCAACATTGCTACGACCCGTATTCGCACCGACAC discrete_label="Not satisfied"
record_sequence=ACATTTGTTGATACAACCATAAAATGATAATTAATAATTATTTATAATCAGCAACTTAACCACACCCATAAATTGATAATTATCAACAAACGCCCGGTCGCGGTACTCTGATCATAGTCAGACCAAC discrete_label=Satisfied
record_sequence=ACATTTGTTGATACAACCATAAAATGATAATTACACCCATTAATTGATAATTGTGACACCGAATTTAACTATAACGCTCTGATCATAGTCAGACCAACATTGCTACGACCCGTATTCGCACCGACAC discrete_label=Satisfied
record_sequence=ACATTTGTTGATACAACCATAAAATGATAATTACACCCATCCATTGATAATTATCACACCCATAAATTGATATTGCCTCTGATCATAGTCAGACCAACATTGCTACGACCCGTATTCGCACCGACAC discrete_label="Not satisfied"
record_sequence=ACATTTGTTGATTGAACCATAAAATGATAATTACACCCATAAATTGATAATTATCACACCCATAAATTGATATTGCCTCTGATCATAGTCAGACCAACATTGCTACGACCCGTATTCGCACCGACAC discrete_label="Not satisfied"
record_sequence=ACATTTGTTGATACACCCATAAATTGATAATTACAACCATATATTGATATCTCTCACAACCATATATTGATATCTCCTCTGATCATAGTCAGACCAACATTGCTACGACCCGTATTCGCACCGACAC discrete_label="Not satisfied"
record_sequence=ACATTTGTTGATACAACCATAAAATGATAATTACACCCATAAATTGATAATTATCACACCCATAAATTGATATTGCCTCTTCATGGTCTAAACTTCAGTAAGTTTACGACATTTTCAGCACCGACAC discrete_label=Satisfied
record_sequence=ACATTTGTTGATACAACCATAAAATGATAATTACACCCATAAATTGATATTGCTCACAACCATAAAATGATAATTACTCTGATCATAGTCAGACCAACATTGCTACGACCCGTATTCGCACCGACAC discrete_label=Satisfied
record_sequence=CAAAATGTTGATACAACCATAAAATGATAATTACACCCATAAATTGATAATTATCACACCCATAAATTGATATTGCCTCTGATCATAGTCAGACCAACATTGCTACGACCCGTATTCGCACCGACAC discrete_label="Not satisfied"
record_sequence=ACATTTGTTGATACACCCATAAATTGATATTGCCAACCATAAAATGATAATTATCACAACCATAAAGTGATATTTACTCTGATCATAGTCAGACCAACATTGCTACGACCCGTATTCGCACCGACAC discrete_label="Not satisfied"
record_sequence=ACATTTGTTGATACAACCATAAAATGATAATTAATAATTATTTATAATCAGCAACTTAACACCCATAAATTGATAATTATCACACCCATAAATTGATATTGCCTCTGATCATAGTCAGACCAACATT discrete_label="Not satisfied"
record_sequence=ACATTTGTTGATACAACCATAAAATGATAATTACACCCATAAATTGATAATTATCAGTCCCATAAATTGATATTGCCTCTGATCATAGTCAGACCAACATTGCTACGACCCGTATTCGCACCGACAC discrete_label=Satisfied
record_sequence=ACATTTGTTGATACAACCATAAAATGATAATTACACCCAGCCCGGTCGCCGGCGACACAAACGCCCGGTCGCGGTAAGAGGATCATAGTCAGACCAACATTGCTACGACCCGTATTCGCACCGACAC discrete_label=Satisfied
record_sequence=ACATTTGTTGATACAACCATATATTGATATCTCCACCCATAAATTGATAATTATCAGTGGGTATTTAACTATAACGCTCTGATCATAGTCAGACCAACATTGCTACGACCCGTATTCGCACCGACAC discrete_label=Satisfied
record_sequence=ACATTTGTTGATACCACCATAAAATGGTAATTCCACCCCTAAATTGATAATTATCACACCCAATTTAACTATAACGCTCTGATCATAGTCAGACCAACATTGCTACGACCCGTATTCGCACCGACAC discrete_label="Not satisfied"
